- testSystem: T1, hu-CD74 antigen (R&D SYSTEMS catalog #3590-CD-050) (human, UniProt P04233-2 73-232, limits assumed)
- T1 construct: Bought antigen; also called rhCD74; human CD74
- T1 sequence (looked up): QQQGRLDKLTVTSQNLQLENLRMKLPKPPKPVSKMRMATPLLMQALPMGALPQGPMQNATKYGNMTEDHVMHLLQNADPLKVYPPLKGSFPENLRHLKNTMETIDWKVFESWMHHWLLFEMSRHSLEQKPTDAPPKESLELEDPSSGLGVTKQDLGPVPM
- assayMethodText: SPR (Biacore T200), captured on anti-human Fc, rhCD74 analyte
We begin with a simple list: items and their reported koff.
Entry rule: numbers only, all in s⁻¹.

Examples from the recorded data:
binder | uom | koff
1251-B09 heavy chain paired with VL SEQ ID NO: 272 (antibody, V domains shown) VH: QVQLVESGGGVVQPGRSLRLSCAASGFNFSDYGMHWVRQAPDKGLEWVAVTWYDGSREYYADSVKGRFTISRDNSKNTLYLQMNSLRAEDTAVYYCARGGTLVHGALYGNDVWGQGTTVTVSS VL: DIQMTQSPSSLSASVGDRVTITCRASQGISSWLAWYQQKPEKAPKSLIYAASSLQSGVPSRFSGSGSGTDFTLTISSLQPEDFATYYCQQYNSYPLTFGGGTKVEIK | s⁻¹ | 0.000218
1251-D09 heavy chain paired with VL SEQ ID NO: 272 (antibody, V domains shown) VH: QVQLVESGGGVVQPGRSLRLSCAASGFSFSSYGMHWVRQAPDKGLEWVAVIWYDASIRKYAGSVKGRFTISRDNSKNTLYLQMNSLRAEDTAVYYCARGGTVERGAIYGTDVWGQGTTVTVSS VL: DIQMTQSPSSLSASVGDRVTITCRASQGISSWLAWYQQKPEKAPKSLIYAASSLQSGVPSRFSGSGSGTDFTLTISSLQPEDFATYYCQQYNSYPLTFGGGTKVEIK | s⁻¹ | 0.000137
1251-D06 heavy chain paired with VL SEQ ID NO: 272 (antibody, V domains shown) VH: QVQLVESGGGVVQPGRSLRLSCAASGFSFGSYGMHWVRQAPDKGLEWVAVVWYDGSKTIYADSVKGRFTISRDNSKNTLYLQMNSLRAEDTAVYYCARGGTLVRGAVYGLDVWGQGTTVTVSS VL: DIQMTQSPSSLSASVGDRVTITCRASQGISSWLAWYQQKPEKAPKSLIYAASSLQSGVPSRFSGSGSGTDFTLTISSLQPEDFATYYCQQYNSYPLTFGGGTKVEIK | s⁻¹ | 0.000173

--- query ---
// fetch koff given entry 1251-B08 heavy chain paired with VL SEQ ID NO: 272 (antibody, V domains shown) VH: QVQLVESGGGVVQPGRSLRLSCAASGFNFSDYGMHWVRQAPDKGLEWVAVIWYDGSISYYADSVKGRFTISRDNSKNTLYLQMNSLRAEDTAVYYCARGGTVEHGAVYGTDVWGQGATVTVSS VL: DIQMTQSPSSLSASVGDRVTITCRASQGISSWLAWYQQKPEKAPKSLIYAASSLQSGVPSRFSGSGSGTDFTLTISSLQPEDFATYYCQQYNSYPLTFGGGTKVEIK
0.000106
